assay: Distribution coefficient determination, D7.4 (1-octanol / MOPS buffer pH 7.4); format: physicochemical; conditions: pH 7.4, 1-octanol/MOPS buffer; read-out: Log D7.4
READOUT LABEL: logD
# output: bare number, no unit

// lookup logD for CC(C)CCOC(=O)[C@H](N)CCC(=O)N[C@H](Cc1c[nH]c2ccccc12)C(=O)OCCC(C)C.Cl [Apo848, hydrochloride] 2.1

###

Assay: Caco-2 cell permeability evaluation
Assay type: in vitro ADME
Details: human; caco-2, 50 μM, HBSS pH 7.4, 37° C.; read-out: apparent permeability (Papp)
Protocol: Human intestinal absorbtion potential of a compound of Formula I was estimated in caco-2 cells permeability assay. Caco-2 cells obtained originally from ATCC were seeded onto 0.9-cm^2 PET filter (Becton Dickinson) at a density of 90000 cells/insert. […] Integrity of the cell monolayers was evaluated via measurement of Lucifer Yellow paracellular apparent permeability coefficient (Papp). […]
READOUT LABEL: Papp at 120 min, 50 μM
# answer = value followed by unit

// lookup Papp at 120 min, 50 μM for CC(C)CCOC(=O)[C@H](N)CCC(=O)N[C@H](Cc1c[nH]c2ccccc12)C(=O)OCCC(C)C.Cl 2.87 ×10⁻⁶ cm/s
